# tested system: KRAS G13C (Homo sapiens, UniProt P01116+P62937, G13C)
# Sequence (P01116 1-169 isoform P01116-2 G13C limits assumed, one chain of several): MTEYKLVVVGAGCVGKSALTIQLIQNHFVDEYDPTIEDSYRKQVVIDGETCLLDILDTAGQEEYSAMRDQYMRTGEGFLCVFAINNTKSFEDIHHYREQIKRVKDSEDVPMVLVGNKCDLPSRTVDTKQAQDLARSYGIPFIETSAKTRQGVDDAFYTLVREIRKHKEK
# protocol details: Ras-Raf disruption/FRET/MOA assay, KRAS G13C
# Assay type: biochemical
# condition description: disruption of BRAF RBD binding, with Cyclophilin A; read-out: KRAS G13C FRET IC50
Some compounds, each annotated with its measured IC50.

compound | IC50
CCn1c(-c2cccnc2[C@H](C)OC)c2c3cc(ccc31)-c1cc(cc(C(F)F)c1)C[C@H](NC(=O)[C@H](C1CCCC1)N1CC[C@]3(CCN(C(=O)[C@H]4CN4)C3)C1=O)C(=O)N1CCC[C@H](N1)C(=O)OCC(C)(C)C2 | 100 to 1000 nM
CCn1c(-c2cnccc2COC)c2c3cc(ccc31)-c1cc(O)cc(c1)C[C@H](NC(=O)[C@H](C(C)C)N(C)C(=O)CN(C)C(=O)[C@@H]1[C@H](C(=O)OC)N1[S@@+]([O-])C(C)(C)C)C(=O)N1CCC[C@H](N1)C(=O)OCC(C)(C)C2 (stereo partly shown) | 10 to 100 nM
CCn1c(-c2cnccc2COC)c2c3cc(ccc31)-c1cc(O)cc(c1)C[C@H](NC(=O)[C@H](C(C)C)N(C)C(=O)CN(C)C(=O)[C@@H]1CN1C(C)=O)C(=O)N1CCC[C@H](N1)C(=O)OCC(C)(C)C2 | 10 to 100 nM
CCn1c(-c2cccnc2[C@H](C)OC)c2c3cc(ccc31)-c1cc(CF)cc(c1)C[C@H](NC(=O)[C@H](C1CCCC1)N1CC[C@]3(CCN(C(=O)[C@@H]4N[C@@H]4C4CC4)C3)C1=O)C(=O)N1CCC[C@H](N1)C(=O)OCC(C)(C)C2 | 100 to 1000 nM
CCn1c(-c2cccnc2[C@H](C)OC)c2c3cc(ccc31)-c1cccc(c1)C[C@H](NC(=O)[C@H](C(C)C)N1CC[C@H](CN=C=NCCOC)C1)C(=O)N1CCC[C@H](N1)C(=O)OCC(C)(C)C2 | 100 to 1000 nM
CCn1c(-c2cnccc2COC)c2c3cc(ccc31)-c1cc(O)cc(c1)C[C@H](NC(=O)[C@H](C(C)C)N(C)C(=O)CN(C)C(=O)[C@H]1CN1S(C)(=O)=O)C(=O)N1CCC[C@H](N1)C(=O)OCC(C)(C)C2 (stereo partly shown) | 10 to 100 nM
CCn1c(-c2cnccc2COC)c2c3cc(ccc31)-c1cc(O)cc(c1)C[C@H](NC(=O)[C@H](C(C)C)N(C)C(=O)CN(C)C(=O)[C@@H]1[C@H](C)N1[S@@+]([O-])C(C)(C)C)C(=O)N1CCC[C@H](N1)C(=O)OCC(C)(C)C2 (stereo partly shown) | 10 to 100 nM
CCn1c(-c2cnccc2COC)c2c3cc(ccc31)-c1cc(O)cc(c1)C[C@H](NC(=O)[C@H](C(C)C)N(C)C(=O)CN(C)C(=O)[C@@H]1[C@H](C3CC3)N1[S@@+]([O-])C(C)(C)C)C(=O)N1CCC[C@H](N1)C(=O)OCC(C)(C)C2 (stereo partly shown) | 100 to 1000 nM
CCn1c(-c2cnccc2COC)c2c3cc(ccc31)-c1cc(O)cc(c1)C[C@H](NC(=O)[C@H](C(C)C)N(C)C(=O)CN1C(=O)[C@@H]3[C@H](C1=O)N3Cc1ccccc1)C(=O)N1CCC[C@H](N1)C(=O)OCC(C)(C)C2 (stereo partly shown) | 100 to 1000 nM
CCn1c(-c2cnccc2COC)c2c3cc(ccc31)-c1cc(O)cc(c1)C[C@H](NC(=O)[C@H](C(C)C)N(C)C(=O)[C@H]1CCN(C(=O)N3C[C@H]3C(=O)OC)C1)C(=O)N1CCC[C@H](N1)C(=O)OCC(C)(C)C2 | 100 to 1000 nM
CCn1c(-c2cnccc2COC)c2c3cc(ccc31)-c1cc(O)cc(c1)C[C@H](NC(=O)[C@H](C(C)C)N(C)C(=O)CN(C)C(=O)[C@@H]1CN1S(C)(=O)=O)C(=O)N1CCC[C@H](N1)C(=O)OCC(C)(C)C2 (stereo partly shown) | 10 to 100 nM
CCn1c(-c2cccnc2[C@H](C)OC)c2c3cc(ccc31)-c1cc(O)cc(c1)C[C@H](NC(=O)[C@H](C(C)C)N1CC[C@@]3(CCCN(C(=O)[C@H]4CN4)C3)C1=O)C(=O)N1CCC[C@H](N1)C(=O)OCC(C)(C)C2 | 100 to 1000 nM
CCn1c(-c2cnccc2COC)c2c3cc(ccc31)-c1cc(O)cc(c1)C[C@H](NC(=O)[C@H](C(C)C)N(C)C(=O)CN(C)C(=O)[C@H]1CN1C(C)=O)C(=O)N1CCC[C@H](N1)C(=O)OCC(C)(C)C2 | 10 to 100 nM
CCn1c(-c2cccnc2[C@H](C)OC)c2c3cc(ccc31)-c1cc(O)cc(c1)C[C@H](NC(=O)[C@H](C(C)C)N1CC[C@]3(CCCN(C(=O)[C@@H]4CN4)C3)C1=O)C(=O)N1CCC[C@H](N1)C(=O)OCC(C)(C)C2 | 100 to 1000 nM
CCn1c(-c2cccnc2[C@H](C)OC)c2c3cc(ccc31)-c1cc(O)cc(c1)C[C@H](NC(=O)[C@H](C(C)C)N(C)C(=O)[C@@H]1CN(C(=O)[C@H]3CN3)C[C@@H]1C)C(=O)N1CCC[C@H](N1)C(=O)OCC(C)(C)C2 | 10 to 100 nM
CCn1c(-c2cccnc2[C@H](C)OC)c2c3cc(ccc31)-c1cc(O)cc(c1)C[C@H](NC(=O)[C@H](C(C)C)N1CC[C@@]3(CCN(C[C@H]4CN4)C3)C1=O)C(=O)N1CCC[C@H](N1)C(=O)OCC(C)(C)C2 [Compound 193] | 10 to 100 nM

---

# tested system: NRAS G12C (Homo sapiens, UniProt P01111+P62937, G12C)
# Construct: His6
# Sequence (P01111 whole entry G12C, one chain of several): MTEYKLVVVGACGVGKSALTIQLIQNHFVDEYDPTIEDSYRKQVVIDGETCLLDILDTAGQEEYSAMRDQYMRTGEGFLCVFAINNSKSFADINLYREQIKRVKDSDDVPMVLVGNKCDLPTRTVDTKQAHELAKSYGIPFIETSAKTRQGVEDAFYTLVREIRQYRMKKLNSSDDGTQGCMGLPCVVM
# protocol details: Ras-Raf disruption/FRET/MOA assay, NRAS G12C
# Assay type: biochemical
# condition description: NRAS G12C; read-out: NRAS G12C FRET data IC50
Some compounds, each annotated with its measured IC50.
reported endpoint: IC50

compound | reported endpoint | result
CCn1c(-c2cnccc2COC)c2c3cc(ccc31)-c1cc(O)cc(c1)C[C@H](NC(=O)[C@H](C(C)C)N(C)C(=O)[C@H]1CCN(C(=O)N3C[C@@H]3C(=O)OC)C1)C(=O)N1CCC[C@H](N1)C(=O)OCC(C)(C)C2 [Compound 94] | IC50 | 0.1 to 1 µM
CCn1c(-c2cnccc2COC)c2c3cc(ccc31)-c1cc(O)cc(c1)C[C@H](NC(=O)[C@H](C(C)C)N(C)C(=O)CN1C(=O)[C@@H]3[C@H](C1=O)N3Cc1ccccc1)C(=O)N1CCC[C@H](N1)C(=O)OCC(C)(C)C2 (stereo partly shown) [Example 55] | IC50 | 0.1 to 1 µM
CCn1c(-c2cccnc2[C@H](C)OC)c2c3cc(ccc31)-c1cc(O)cc(c1)C[C@H](NC(=O)[C@H](C(C)C)N(C)C(=O)[C@@H]1CN(C(=O)[C@H]3CN3)C[C@@H]1C)C(=O)N1CCC[C@H](N1)C(=O)OCC(C)(C)C2 [Compound 88] | IC50 | < 0.01 µM
CCn1c(-c2cnccc2COC)c2c3cc(ccc31)-c1cc(O)cc(c1)C[C@H](NC(=O)[C@H](C(C)C)N(C)C(=O)CN(C)C(=O)[C@H]1CN1C(C)=O)C(=O)N1CCC[C@H](N1)C(=O)OCC(C)(C)C2 [Example 34] | IC50 | 0.01 to 0.1 µM

---

# tested system: KRAS WT (Homo sapiens, UniProt P01116+P62937)
# Sequence (P01116 1-169 isoform P01116-2 limits assumed): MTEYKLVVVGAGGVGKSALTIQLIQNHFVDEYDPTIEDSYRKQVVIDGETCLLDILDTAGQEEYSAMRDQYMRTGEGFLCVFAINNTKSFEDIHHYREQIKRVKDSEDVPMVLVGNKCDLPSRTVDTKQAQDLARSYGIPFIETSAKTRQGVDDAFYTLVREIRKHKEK
# Sequence (P62937 whole entry): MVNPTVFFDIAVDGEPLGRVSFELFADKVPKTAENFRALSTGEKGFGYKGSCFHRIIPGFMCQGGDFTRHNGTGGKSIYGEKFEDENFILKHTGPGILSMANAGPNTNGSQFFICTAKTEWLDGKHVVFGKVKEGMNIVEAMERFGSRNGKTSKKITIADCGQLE
# protocol details: Ras-Raf disruption/FRET/MOA assay, KRAS WT
# Type: biochemical
# condition description: disruption of BRAF RBD binding, with Cyclophilin A; read-out: KRAS WT FRET IC50
Some compounds, each annotated with its measured IC50.
reported endpoint: IC50

compound | tested system | result
CCn1c(-c2cnccc2COC)c2c3cc(ccc31)-c1cc(O)cc(c1)C[C@H](NC(=O)[C@H](C(C)C)N(C)C(=O)CN(C)C(=O)[C@H]1[C@@H](C)N1[S@+]([O-])C(C)(C)C)C(=O)N1CCC[C@H](N1)C(=O)OCC(C)(C)C2 (some centres unmarked) | KRAS WT (Homo sapiens, UniProt P01116+P62937) | 0.01 to 0.1 µM
CCn1c(-c2cccnc2[C@H](C)OC)c2c3cc(ccc31)-c1csc(n1)C[C@H](NC(=O)[C@H](C1CCCC1)N1CC[C@]3(CCN(C(=O)[C@H]4CN4)C3)C1=O)C(=O)N1CCC[C@H](N1)C(=O)OCC(C)(C)C2 | KRAS WT (Homo sapiens, UniProt P01116+P62937) | 1 to 10 µM
CCn1c(-c2cccnc2[C@H](C)OC)c2c3cc(ccc31)-c1cc(O)cc(c1)C[C@H](NC(=O)[C@H](C(C)C)N1CC[C@@]3(CCN(C[C@H]4CN4)C3)C1=O)C(=O)N1CCC[C@H](N1)C(=O)OCC(C)(C)C2 [Compound 193] | KRAS WT (Homo sapiens, UniProt P01116+P62937) | 0.01 to 0.1 µM
CCn1c(-c2cnccc2COC)c2c3cc(ccc31)-c1cc(O)cc(c1)C[C@H](NC(=O)[C@H](C(C)C)N(C)C(=O)CN1C(=O)[C@@H]3[C@H](C1=O)N3Cc1ccccc1)C(=O)N1CCC[C@H](N1)C(=O)OCC(C)(C)C2 (some centres unmarked) | KRAS WT (Homo sapiens, UniProt P01116+P62937) | 1 to 10 µM
CCn1c(-c2cccnc2[C@H](C)OC)c2c3cc(ccc31)-c1cc(O)cc(c1)C[C@H](NC(=O)[C@H](C(C)C)N1CC[C@]3(CCCN(C(=O)[C@H]4CN4)C3)C1=O)C(=O)N1CCC[C@H](N1)C(=O)OCC(C)(C)C2 | KRAS WT (Homo sapiens, UniProt P01116+P62937) | 0.1 to 1 µM
CCn1c(-c2cccnc2[C@H](C)OC)c2c3cc(ccc31)-c1cc(cc(C(F)F)c1)C[C@H](NC(=O)[C@H](C1CCCC1)N1CC[C@]3(CCN(C(=O)[C@@H]4N[C@@H]4C4CC4)C3)C1=O)C(=O)N1CCC[C@H](N1)C(=O)OCC(C)(C)C2 | KRAS WT (Homo sapiens, UniProt P01116+P62937) | 0.1 to 1 µM
CCn1c(-c2cccnc2[C@H](C)OC)c2c3cc(ccc31)-c1cc(O)cc(c1)C[C@H](NC(=O)[C@H](C(C)C)N1CCCC3(CN(C(=O)[C@H]4CN4)C3)C1=O)C(=O)N1CCC[C@H](N1)C(=O)OCC(C)(C)C2 | KRAS WT (Homo sapiens, UniProt P01116+P62937) | 0.01 to 0.1 µM
CCn1c(-c2cccnc2[C@H](C)OC)c2c3cc(ccc31)-c1cc(O)cc(c1)C[C@H](NC(=O)[C@H](C(C)C)N(C)C(=O)[C@@H]1CN(C(=O)[C@H]3CN3)C[C@@H]1C)C(=O)N1CCC[C@H](N1)C(=O)OCC(C)(C)C2 | KRAS WT (Homo sapiens, UniProt P01116+P62937) | 0.01 to 0.1 µM
